Here the recorded normalized RNA/DNA level with ligand (log10) is given for each entry.
B1: library; a variant is named by its letters at N, in order (parent)
chain: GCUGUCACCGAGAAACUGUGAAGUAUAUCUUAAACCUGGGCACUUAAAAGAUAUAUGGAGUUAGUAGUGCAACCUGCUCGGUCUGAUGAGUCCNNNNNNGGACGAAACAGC

Variants of: B1
assay comment: normalized RNA/DNA level with ligand (relative to sTRSVctl = 100) (log10 (% of sTRSVctl)); HEK293T; ligand: cyclic di-GMP (c-di-GMP-II aptamer); ligand concentration (+) RNA-Seq: 1 mM; higher = less ribozyme self-cleavage, higher mRNA level
condition info: reporter: mCherry (pCS4076), ligand present: yes
# print the numeric value only

Before answering, review these 5 worked examples.
Qu. Which value of normalized RNA/DNA level with ligand (log10) has been reported for GCUGUCACCGAGAAACUGUGAAGUAUAUCUUAAACCUGGGCACUUAAAAGAUAUAUGGAGUUAGUAGUGCAACCUGCUCGGUCUGAUGAGUCCUGACGGGGACGAAACAGC [UGACGG] in the records?
Ans. 1.82

Qu. Which value of normalized RNA/DNA level with ligand (log10) has been reported for GCUGUCACCGAGAAACUGUGAAGUAUAUCUUAAACCUGGGCACUUAAAAGAUAUAUGGAGUUAGUAGUGCAACCUGCUCGGUCUGAUGAGUCCUUUUAAGGACGAAACAGC [UUUUAA] in the records?
Ans. 1.86

Qu. Which value of normalized RNA/DNA level with ligand (log10) has been reported for GCUGUCACCGAGAAACUGUGAAGUAUAUCUUAAACCUGGGCACUUAAAAGAUAUAUGGAGUUAGUAGUGCAACCUGCUCGGUCUGAUGAGUCCUAGAUCGGACGAAACAGC [UAGAUC] in the records?
Ans. 1.82

Qu. Which value of normalized RNA/DNA level with ligand (log10) has been reported for GCUGUCACCGAGAAACUGUGAAGUAUAUCUUAAACCUGGGCACUUAAAAGAUAUAUGGAGUUAGUAGUGCAACCUGCUCGGUCUGAUGAGUCCGUAGGAGGACGAAACAGC [GUAGGA] in the records?
Ans. 1.64

Qu. Which value of normalized RNA/DNA level with ligand (log10) has been reported for GCUGUCACCGAGAAACUGUGAAGUAUAUCUUAAACCUGGGCACUUAAAAGAUAUAUGGAGUUAGUAGUGCAACCUGCUCGGUCUGAUGAGUCCAUCAAUGGACGAAACAGC [AUCAAU] in the records?
Ans. 1.77

More entries:
Qu. Which value of normalized RNA/DNA level with ligand (log10) has been reported for GCUGUCACCGAGAAACUGUGAAGUAUAUCUUAAACCUGGGCACUUAAAAGAUAUAUGGAGUUAGUAGUGCAACCUGCUCGGUCUGAUGAGUCCCCUAGCGGACGAAACAGC [CCUAGC] in the records?
Ans. 1.82

Qu. Which value of normalized RNA/DNA level with ligand (log10) has been reported for GCUGUCACCGAGAAACUGUGAAGUAUAUCUUAAACCUGGGCACUUAAAAGAUAUAUGGAGUUAGUAGUGCAACCUGCUCGGUCUGAUGAGUCCGUGGGAGGACGAAACAGC [GUGGGA] in the records?
Ans. 1.72

All values here come from the supplement of paper PMC6757056.
